# Test system: Alpha1D (Homo sapiens, UniProt P25100)
# Sequence (P25100 1-572): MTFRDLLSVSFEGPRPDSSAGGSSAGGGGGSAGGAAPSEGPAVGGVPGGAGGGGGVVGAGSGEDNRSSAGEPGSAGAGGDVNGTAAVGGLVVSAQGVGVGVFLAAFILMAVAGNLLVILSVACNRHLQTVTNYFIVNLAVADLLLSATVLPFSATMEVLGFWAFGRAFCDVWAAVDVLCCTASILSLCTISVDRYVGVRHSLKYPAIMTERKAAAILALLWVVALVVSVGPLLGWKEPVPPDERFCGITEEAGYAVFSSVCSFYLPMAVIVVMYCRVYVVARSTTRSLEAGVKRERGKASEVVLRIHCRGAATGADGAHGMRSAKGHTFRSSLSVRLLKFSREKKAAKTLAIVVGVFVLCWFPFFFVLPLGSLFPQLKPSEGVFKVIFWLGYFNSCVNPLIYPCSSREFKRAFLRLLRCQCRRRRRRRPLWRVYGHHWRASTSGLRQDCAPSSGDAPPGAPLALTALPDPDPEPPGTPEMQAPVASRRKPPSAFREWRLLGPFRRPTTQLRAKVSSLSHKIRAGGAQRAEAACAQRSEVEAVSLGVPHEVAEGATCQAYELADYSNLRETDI
# Assay name: Secondary radioligand binding assay (Ki)
# Setup conditions: read-out: Kiα1D
pKi: −log10 of the molar value.
Attribute measured: pKi

>>> readout_value("COc1ccc2c(c1)C(=O)N(CCN1CCN(c3ccccc3OC)CC1)C2 [GFR-VII-280]")
7.91
>>> readout_value("COc1ccc2c(c1)CN(CCCN1CCN(c3ccccc3OC)CC1)C2=O [GFR-VII-290]")
7.25
>>> readout_value("COc1cc2c(cc1OC)C(=O)N(CCCCN1CCN(c3ccccc3OC)CC1)C2 [GFR-VII-285]")
8.36
>>> readout_value("COc1ccc2c(c1)C(=O)N(CCCN1CCN(c3ccccc3OC)CC1)C2 [GFR-VII-273]")
7.09
